Let's look at some binders and their measured kon.
target: TRBV9+TRAV38 antigen; test: BLI (OctetRed 96), antigen on AR2G sensors, antibody 126-2 nM, 1:1 model; run 2
MEASURE: kon (M⁻¹ s⁻¹)

anti-TRBV9-3 monoclonal antibody (antibody, human IgG1, kappa, V domains shown) VH: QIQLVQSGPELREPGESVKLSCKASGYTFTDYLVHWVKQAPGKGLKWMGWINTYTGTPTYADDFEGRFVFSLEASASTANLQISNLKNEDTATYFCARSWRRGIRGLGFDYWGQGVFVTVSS VL: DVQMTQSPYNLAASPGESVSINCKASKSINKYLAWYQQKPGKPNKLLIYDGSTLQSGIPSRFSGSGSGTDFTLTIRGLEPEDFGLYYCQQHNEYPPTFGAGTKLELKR = 229000
anti-TRBV9-2 monoclonal antibody (antibody, human IgG1, kappa, V domains shown) VH: QIQLVQSGPELREPGESVKLSCKASGYTFTDYLVHWVKQAPGKGLKWMGWINTYTGTPTYADDFEGRFVFSLEASASTANLQISNLKNEDTATYFCARSWRRGLRGIGFDYWGQGVFVTVSS VL: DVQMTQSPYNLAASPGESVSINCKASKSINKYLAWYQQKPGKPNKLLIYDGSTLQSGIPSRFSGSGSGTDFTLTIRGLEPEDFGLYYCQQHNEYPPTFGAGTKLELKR = 289000
anti-TRBV9-1 monoclonal antibody (antibody, human IgG1, kappa, V domains shown) VH: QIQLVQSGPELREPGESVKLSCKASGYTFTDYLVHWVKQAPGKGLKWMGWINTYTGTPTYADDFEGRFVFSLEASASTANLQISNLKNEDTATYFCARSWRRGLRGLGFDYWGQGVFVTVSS VL: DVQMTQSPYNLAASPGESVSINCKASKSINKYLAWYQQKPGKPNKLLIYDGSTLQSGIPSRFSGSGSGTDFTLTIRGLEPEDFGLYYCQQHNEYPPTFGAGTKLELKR = 562000
anti-TRBV9-4 monoclonal antibody (antibody, human IgG1, kappa, V domains shown) VH: QIQLVQSGPELREPGESVKLSCKASGYTFTDYLVHWVKQAPGKGLKWMGWINTYTGTPTYADDFEGRFVFSLEASASTANLQISNLKNEDTATYFCARSWRRGIRGIGFDYWGQGVFVTVSS VL: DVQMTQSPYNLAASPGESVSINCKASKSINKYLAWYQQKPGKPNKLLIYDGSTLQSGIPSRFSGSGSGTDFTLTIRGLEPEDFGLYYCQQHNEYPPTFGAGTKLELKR = 476000
